TARGET_OR_SYSTEM: PilF1–65 F63Y H33Q S39R A41G I55L I59L R62Q (PilF1–65 F63Y mut6) (Thermus thermophilus, UniProt Q5SLC9, A41G/F63Y/H33Q/I55L/I59L/R62Q/S39R)
Sequence (Q5SLC9 1-65 H33Q/S39R/A41G/I55L/I59L/R62Q/F63Y): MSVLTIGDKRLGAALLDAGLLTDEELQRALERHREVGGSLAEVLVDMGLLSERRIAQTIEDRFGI
EXPERIMENT: ITC c‐di‐GMP binding, PilF1–65 F63Y mut6
CONDITION: ITC, 20 °C, pH 7.5; PilF1–65 F63Y mut6
READOUT: pKd
The meaning of pKd here: minus log10 of the concentration in molar units.

Enquiry: Could you tell me which pKd is on file for Nc1nc2c(ncn2C2OC3COP(=O)(O)OC4C(COP(=O)(O)OC3C2O)OC(n2cnc3c(=O)[nH]c(N)nc32)C4O)c(=O)[nH]1 (stereo not shown) ?
Return: 4.89
